experiment: NCI Yeast Anticancer Drug Screen. Data for the wt1 strain (AID 149);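 also: 0% = growth of vehicle-treated wt1 cultures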; details: S. cerevisiae wt1 strain (SPY 50644) growth inhibition; at 1.2 µM; active compounds read high
Compounds without any hit were thinned out: in the full panel of roughly 79,000, 15% have a hit. Calls of active or inactive are those of the source. Rule as the data show it: active = growth inhibition above about 70%; inactive = the rest.
Reported values of growth inhibition for individual entries
TEST_READOUT: growth inhibition

{"COMPOUND": "CN1c2ccc(Cl)cc2C(=O)NC1c1ccc([N+](=O)[O-])s1 (stereo not drawn)", "TEST_RESULT": "5% (inactive)"}
{"COMPOUND": "O=C1C(Nc2ccccc2)=C(Oc2ccccc2)C(=O)c2ccccc21", "TEST_RESULT": "3% (inactive)"}
{"COMPOUND": "CSC1=NNC(SC)=NN1", "TEST_RESULT": "-7% (inactive)"}

* * *

assay: NCI Yeast Anticancer Drug Screen. Data for the CLN2oe strain (AID 163);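 also: 0% = growth of vehicle-only control cultures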; conditions: S. cerevisiae CLN2oe strain, at 3.7 µM, active compounds read high
The panel holds about 79,000 compounds, 15% with a hit somewhere; the sample as a whole holds those more often.

{"COMPOUND_STRUCTURE_STRING": "CCC/C(Cl)=N\\OC(=O)Nc1ccc(Br)cc1", "growth inhibition, %": 15}
{"COMPOUND_STRUCTURE_STRING": "CCCC/C=C/C(CC)(C(=O)OCC)C(=O)OCC", "growth inhibition, %": 0}
{"COMPOUND_STRUCTURE_STRING": "C/C(=N\\NC(=S)SCc1ccccc1)c1ccccn1", "growth inhibition, %": 2}
{"COMPOUND_STRUCTURE_STRING": "CC(C)c1cc(C(C)C)c(O)c(C([O-])[O-])c1.CC(C)c1cc(C(C)C)c(O)c(C([O-])[O-])c1.CC(C)c1cc(C(C)C)c(O)c(C([OH2+])[OH2+])c1.CC(C)c1cc(C(C)C)c(O)c(C([OH2+])[OH2+])c1.[Cu+2].[Cu+2].[OH3+].[OH3+]", "growth inhibition, %": 9}

* * *

test: NCI Yeast Anticancer Drug Screen. Data for the wt1 strain (AID 149);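 also: 0% = growth of vehicle-treated wt1 cultures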; details: S. cerevisiae wt1 strain (SPY 50644) growth inhibition; at 33.0 µM; active compounds read high
Compounds without any hit were thinned out: in the full panel of roughly 79,000, 15% have a hit.
Recorded growth inhibition values for a group of compounds are listed next.
TEST_READOUT: growth inhibition (%)

{"COMPOUND": "Clc1cccc(C(Nc2nncs2)Nc2nncs2)c1Cl", "TEST_RESULT": 11}
{"COMPOUND": "CCOC(=O)[C@H]1Nc2ccccc2C2c3ccccc3CC21 (some centres not stated)", "TEST_RESULT": 26}
{"COMPOUND": "O=C(NCCCCNCCCNC(=O)c1cc(-c2ccccc2)nc2ccccc12)c1cc(-c2ccccc2)nc2ccccc12", "TEST_RESULT": 5}
{"COMPOUND": "O=C(O)c1ccccc1-c1ccccc1C(=O)Nc1ccc2c(c1)Cc1ccccc1-2", "TEST_RESULT": 47}
{"COMPOUND": "CCCCCCCCCC/C=C\\C(=O)O", "TEST_RESULT": -23}
{"COMPOUND": "CN(C)CCOc1ccc2c(c1)C/C(=C/c1ncc([N+](=O)[O-])n1C)C2=O", "TEST_RESULT": 21}
{"COMPOUND": "CC[n+]1ccc2c(C)c3[nH]c4ccc(O)cc4c3c(C)c2c1", "TEST_RESULT": 9}
{"COMPOUND": "O=[N+]([O-])CC(SCc1ccccc1)c1ccc2c(c1)OCO2 (configuration not stated)", "TEST_RESULT": 98}
{"COMPOUND": "N#CN1C2CCC1CC(=O)C2", "TEST_RESULT": -53}
{"COMPOUND": "N#CSc1ccc(S(N)(=O)=O)cc1", "TEST_RESULT": -9}
{"COMPOUND": "Cc1c(C(=O)C(=O)c2ccccc2)c(C)c(C(=O)C(=O)c2ccccc2)c(C)c1C(=O)C(=O)c1ccccc1", "TEST_RESULT": -4}
{"COMPOUND": "O=C(/C=C\\c1ccc(Cl)cc1Cl)c1cccs1", "TEST_RESULT": -6}
{"COMPOUND": "N#Cc1ccc(C2NN=CC23C(=O)c2ccccc2OC3c2ccccc2)cc1 (configuration not stated)", "TEST_RESULT": -2}
{"COMPOUND": "COc1ccc(N=C2C(=O)Nc3ccc(Br)cc32)cc1", "TEST_RESULT": 14}
{"COMPOUND": "C[S+](C)C1(c2ccccc2)C(=O)c2ccccc2C1=O", "TEST_RESULT": 3}
{"COMPOUND": "CC(C)/C(Cl)=N\\OC(=O)Nc1ccc(F)cc1", "TEST_RESULT": -5}
{"COMPOUND": "CC(=O)OCc1ccc(O)c(C=O)c1", "TEST_RESULT": 8}

* * *

test: NCI Yeast Anticancer Drug Screen. Data for the rad50 strain (AID 155);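 also: 0% = growth of vehicle-only cultures of the same strain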; settings: S. cerevisiae rad50 strain growth inhibition; at 1.2 µM; active compounds read high
The panel holds about 79,000 compounds, 15% with a hit somewhere; the sample as a whole holds those more often.
TEST_READOUT: growth inhibition (%)

{"MOLECULE": "CCCCN(CCCC)CCSc1ccc(Cl)cc1", "UNITS_OF_MEASURE": "%", "TEST_RESULT": -18}
{"MOLECULE": "Cc1ccc(NN(NC(=O)OC(C)C)C(=O)OC(C)C)cc1", "UNITS_OF_MEASURE": "%", "TEST_RESULT": -1}
{"MOLECULE": "CCCCCCCCCCC1CCC(=O)O1 (stereo not given)", "UNITS_OF_MEASURE": "%", "TEST_RESULT": -1}
{"MOLECULE": "CC(C)OC(=O)Oc1ccccc1OC(=O)OC(C)C", "UNITS_OF_MEASURE": "%", "TEST_RESULT": -5}
{"MOLECULE": "CC(C)(CN1CCCCC1)C(=O)CC(SCCS(=O)(=O)O)c1ccc(Br)cc1 (stereo not given)", "UNITS_OF_MEASURE": "%", "TEST_RESULT": -2}

* * *

assay: NCI Yeast Anticancer Drug Screen. Data for the mlh1 strain (AID 171);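 also: 0% = growth of vehicle-treated control cultures of the same strain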; conditions: S. cerevisiae mlh1 strain growth inhibition; at 33.0 µM
About 79,000 compounds went through this panel and 15% of them were active in at least one assay; those are over-represented in the sample as a whole. Activity calls are given as the source filed them. No stated cut-off is given here; in the data, active means growth inhibition above about 70%; inactive means the rest.
Possible outcomes: yes (active), no (inactive)

{"COMPOUND": "CC(C)C1=CC2=C[C@H](O)[C@H]3C(C)(C)CCC[C@]3(C)C2=C(O)C1=O", "LABEL_VALUE": "yes"}
{"COMPOUND": "COc1cccc2nc3ccccc3nc12", "LABEL_VALUE": "no"}
{"COMPOUND": "CC(=O)OC1CCC2(C)C(=CCC3C4CCC5(OC6CC(C)CN(C(C)=O)C6C5C)C(C)=C4C(=O)C32)C1 (configuration not stated)", "LABEL_VALUE": "yes"}
{"COMPOUND": "N#CN1C2CCC1CC(=O)C2", "LABEL_VALUE": "no"}
{"COMPOUND": "c1ccc(-c2nc3cccnc3s2)cc1", "LABEL_VALUE": "no"}
{"COMPOUND": "Cc1ccc(NC(=O)/C(Cl)=C(\\Cl)C(=O)O)cc1C", "LABEL_VALUE": "yes"}
{"COMPOUND": "CCc1ccc(NS(=O)(=O)c2ccccc2)c([N+](=O)[O-])c1", "LABEL_VALUE": "no"}
{"COMPOUND": "O=C(N=Nc1cc(Cl)ccc1Cl)NNc1cc(Cl)ccc1Cl", "LABEL_VALUE": "no"}
{"COMPOUND": "NC(=NCc1ccccc1)N/N=C\\c1ccnc2ccccc12", "LABEL_VALUE": "no"}
{"COMPOUND": "CSC(=S)Nc1cccc(C)n1", "LABEL_VALUE": "no"}
{"COMPOUND": "CC1(C)C(=O)OC(n2cc(F)c(=O)[nH]c2=O)C1=O (configuration not stated)", "LABEL_VALUE": "no"}
{"COMPOUND": "CC[C@@]1(O)C(=O)OCc2c1cc1n(c2=O)Cc2cc3c(N)cccc3nc2-1", "LABEL_VALUE": "no"}
{"COMPOUND": "Nc1ccccc1CC(O)C(=O)O (configuration not stated)", "LABEL_VALUE": "yes"}
{"COMPOUND": "CCCCN1C(=O)N(c2ccc(OCC)cc2)C2N(CCCC)C1C(C)(C)C2(C)C (configuration not stated)", "LABEL_VALUE": "no"}
{"COMPOUND": "COc1cc2ccc(/C=C\\[N+](=O)[O-])cc2cc1OC", "LABEL_VALUE": "yes"}
{"COMPOUND": "Cc1cc(I)ccc1N", "LABEL_VALUE": "yes"}
{"COMPOUND": "CC(=O)N/N=C/C(C)(C)C(C)(C)/C=N/NC(C)=O", "LABEL_VALUE": "no"}
{"COMPOUND": "S=C(S)NN1CCOCC1", "LABEL_VALUE": "no"}
{"COMPOUND": "C#CCCCc1ccccc1", "LABEL_VALUE": "no"}
{"COMPOUND": "CC1=C(SCCO)C(=O)c2ccccc2C1=O", "LABEL_VALUE": "no"}
{"COMPOUND": "NNc1c(F)c(F)cc(F)c1F", "LABEL_VALUE": "no"}
{"COMPOUND": "CC(=O)Nc1ccc(SC(C)=O)cc1", "LABEL_VALUE": "no"}
{"COMPOUND": "COc1ccc(C2c3cc4c(cc3OC(C)(O)C2C)OCO4)c(OC)c1 (configuration not stated)", "LABEL_VALUE": "no"}
{"COMPOUND": "OC(c1ccc(F)cc1)(c1ccc(F)cc1)C1CC1", "LABEL_VALUE": "no"}
{"COMPOUND": "O=C1C=CC(=O)N1c1ccc2c(c1)Cc1cc(NC(=O)C(F)(F)F)ccc1-2", "LABEL_VALUE": "yes"}
{"COMPOUND": "O=C(c1cc(Br)ccc1O)c1cc(Br)ccc1O", "LABEL_VALUE": "yes"}
{"COMPOUND": "O=C(CCCN1CCC(O)(c2ccc(Cl)cc2)CC1)c1ccc(F)cc1", "LABEL_VALUE": "no"}
{"COMPOUND": "Fc1ccc(NC(=S)SCc2ccc3c(c2)OCO3)cc1F", "LABEL_VALUE": "yes"}
{"COMPOUND": "N#Cc1ccc(C2NN=CC23C(=O)c2ccccc2OC3c2ccccc2)cc1 (configuration not stated)", "LABEL_VALUE": "no"}
{"COMPOUND": "CCC(C(=O)O)C1=C(c2ccccc2)CCc2ccccc21 (configuration not stated)", "LABEL_VALUE": "yes"}
{"COMPOUND": "Cn1ccnc1Oc1ccc(Cl)cc1", "LABEL_VALUE": "no"}
{"COMPOUND": "COC(=O)C1=C(C(=O)OC)C2(C)C=CC1O2 (configuration not stated)", "LABEL_VALUE": "no"}
{"COMPOUND": "O=C1c2cc([N+](=O)[O-])ccc2-c2cccc(F)c21", "LABEL_VALUE": "no"}
{"COMPOUND": "CC(/C=C/c1ccc2c(c1)OCO2)[N+](=O)[O-] (configuration not stated)", "LABEL_VALUE": "yes"}
{"COMPOUND": "CCOc1ccc2c(c1)c(CC(=O)O)cn2C", "LABEL_VALUE": "no"}
{"COMPOUND": "CCCN(CCC)CC(O)c1cc(-c2ccc(Cl)cc2)nc2c(C)c(Cl)ccc12 (configuration not stated)", "LABEL_VALUE": "yes"}
{"COMPOUND": "Cc1nc(-[n+]2nc(-c3ccncc3)nn2-c2ccccc2)sc1C", "LABEL_VALUE": "no"}
